biological target: IRAK4 (Homo sapiens); construct: Degradation of IRAK4 in OCI-LY10 was quantitatively measured using Meso Scale Discovery technology; endogenous in cells; host or cells: OCI-LY10; assay: IRAK4 MSD Degradation in OCI-LY10; type: cell-based; settings: OCI-LY10 cells, 24 hrs incubation, MSD; read-out: IRAK4 degradation in OCI-LY10 at 24 hrs: DC50
Sequence (Q9NWZ3 whole entry): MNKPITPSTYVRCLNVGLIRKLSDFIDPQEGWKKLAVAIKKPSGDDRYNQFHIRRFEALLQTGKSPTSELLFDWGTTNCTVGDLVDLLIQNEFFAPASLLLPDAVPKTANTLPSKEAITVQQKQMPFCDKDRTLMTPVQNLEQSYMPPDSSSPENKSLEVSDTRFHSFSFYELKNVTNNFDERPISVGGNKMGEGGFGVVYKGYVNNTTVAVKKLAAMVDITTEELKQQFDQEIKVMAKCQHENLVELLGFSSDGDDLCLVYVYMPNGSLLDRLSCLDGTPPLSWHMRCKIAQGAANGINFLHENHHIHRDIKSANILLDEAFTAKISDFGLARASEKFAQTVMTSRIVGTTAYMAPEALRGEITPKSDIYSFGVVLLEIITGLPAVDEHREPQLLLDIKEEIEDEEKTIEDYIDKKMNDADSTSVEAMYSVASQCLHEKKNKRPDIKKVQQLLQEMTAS
observable: DC50

molecule="CN1CC2(CCN(c3ccn4ncc(C(=O)Nc5cn([C@H]6CC[C@H](CN7CCC(OCC#Cc8cccc9c8n(C)c(=O)n9C8CCC(=O)NC8=O)CC7)CC6)nc5C(F)F)c4n3)CC2)C1 (some centres unmarked) [I-306]" result="> 200 nM"
molecule="C[C@H]1CN(c2ccn3ncc(C(=O)Nc4cn([C@H]5CC[C@H](CN(C)C6CCN(c7cccc8c7n(C)c(=O)n8C7CCC(=O)NC7=O)CC6)CC5)nc4C(F)F)c3n2)C[C@H](C)O1 (some centres unmarked) [I-441]" result="< 10 nM"
molecule="Cn1c(=O)n(C2CCC(=O)NC2=O)c2cccc(C#CC3CN(C[C@H]4CC[C@H](n5cc(NC(=O)c6cnn7ccc(N8C[C@H]9C[C@@H]8CO9)nc67)c(C(F)F)n5)CC4)CCO3)c21 (some centres unmarked) [I-27]" result="> 200 nM"
molecule="CN(C[C@H]1CC[C@H](n2cc(NC(=O)c3cnn4ccc(N5CC(C)(C)C5)nc34)c(C(F)F)n2)CC1)C1CCN(c2cccc3c2n(C)c(=O)n3C2CCC(=O)NC2=O)CC1 (some centres unmarked) [I-275]" result="< 10 nM"
molecule="Cn1c(=O)n(C2CCC(=O)NC2=O)c2ccc(F)c(N3CC(N4CCN([C@H]5CC[C@H](n6cc(NC(=O)c7cnn8ccc(N9C[C@H]%10C[C@@H]9CO%10)nc78)c(C(F)F)n6)CC5)CC4)C3)c21 (some centres unmarked) [I-745]" result="< 10 nM"

In plain terms, COc1ccc2c(c1C#CCO[C@H]1CCN(C[C@H]3CC[C@H](n4cc(NC(=O)c5cnn6ccc(N7C[C@H]8C[C@@H]7CO8)nc56)c(C(F)F)n4)CC3)C[C@@H]1C)n(C)c(=O)n2C1CCC(=O)NC1=O (some centres unmarked) [I-58] has a documented DC50 of > 200 nM

# DC50 (molecule: Cn1c(=O)n(C2CCC(=O)NC2=O)c2cccc(C#CCOC3CCN(C[C@H]4CC[C@H](n5cc(NC(=O)c6cccc(C#N)n6)c(C(C)(C)O)n5)CC4)CC3)c21 (some centres unmarked) [I-262] ) is > 200 nM

Reported DC50 ( Cn1c(=O)n(C2CCC(=O)NC2=O)c2cccc(C[C@H]3CN(Cc4ccc(-n5cc(NC(=O)c6cnn7cccnc67)c(C(F)F)n5)cc4)CCO3)c21 (some centres unmarked) [I-382] ) = > 200 nM

Just so you know, measured DC50 for Cn1c(=O)n(C2CCC(=O)NC2=O)c2cccc(N3CCC(N4CCN(C[C@H]5CC[C@H](n6cc(NC(=O)c7cnn8ccc(N9C[C@H]%10C[C@@H]9CO%10)nc78)c(C(F)F)n6)CC5)CC4)CC3)c21 (some centres unmarked) [I-367] came out at > 200 nM

Item: Cn1c(=O)n(C2CCC(=O)NC2=O)c2cccc(C#CCOC3CCN(C[C@H]4CC[C@H](n5cc(NC(=O)c6cccc7ccc(N8CCC8)nc67)c(C(F)F)n5)CC4)CC3)c21 (some centres unmarked) [I-336] | DC50: > 200 nM

Entry Cn1c(=O)n(C2CCC(=O)NC2=O)c2cccc(C3CCN(C[C@]4(O)CC[C@@H](n5cc6cc(NC(=O)c7cccc(C(F)(F)F)n7)ccc6n5)CC4)CC3)c21 (some centres unmarked) [I-461] , DC50 reported as > 200 nM

DC50 reported for this molecule Cn1c(=O)n(C2CCC(=O)NC2=O)c2cccc(C#CCOC3CCN(C[C@H]4C[C@H](n5cc(NC(=O)c6cnn7ccc(N8C[C@H]9C[C@@H]8CO9)nc67)c(C(F)F)n5)C4)CC3)c21 (some centres unmarked) [I-28] : > 200 nM
